Origin of the recorded values: paper PMC4168798

# test.target: T1, Bcl-w (c-myc-tagged, without the C-terminal trans-membrane region) (human)
# T1 chain: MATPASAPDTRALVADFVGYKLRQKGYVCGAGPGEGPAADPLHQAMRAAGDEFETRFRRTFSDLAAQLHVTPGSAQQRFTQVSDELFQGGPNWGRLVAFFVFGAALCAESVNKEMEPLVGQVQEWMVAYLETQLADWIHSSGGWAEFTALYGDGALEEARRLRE
# run.description: fluorescence polarisation
outcome.measure: Kd (nM)
One number for each entry, in nM.

// worked examples, Kd included
binder: {5/6‑fluorescein amidite}-RPEIWMGQGLRRLGDEINAYYAR-NH2 (designed binder) [A12, N-terminal fluorescein]
Kd (nM): 210
--
binder: {5/6‑fluorescein amidite}-RPEIWLTQHLQRLGDEINAYYAR-NH2 (designed binder) [MS3, N-terminal fluorescein]
Kd (nM): 340

Task item: Note Kd for the binder shown: {5/6‑fluorescein amidite}-RPEIWLGQSLQRLGDEINAYYAR-NH2 (designed binder) [B3, N-terminal fluorescein]
Reply: 16
